Each entry below carries its recorded melting point.
endpoint: melting point (°C)

1. C[C@@H]1CCN(c2nccc3ccc(Cl)cc23)C[C@H]1c1cc(C(F)F)nc2ncnn12 ... 135.42
2. C[C@@H]1CCN(c2cc(C#N)c3cc(Cl)ccc3n2)C[C@H]1c1cc(C(F)F)nc2ncnn12 ... 235.11
3. Cc1cc(C(F)(F)F)cc(N2CC[C@@H](C)[C@H](c3cc(C(F)F)nc4ncnn34)C2)n1 ... 124.81
4. C[C@H]1CCN(c2nccc3ccc(Br)cc23)C[C@@H]1c1cc(C(F)F)nc2ncnn12 ... 134.49
5. C[C@@H]1CCN(c2nccc3occc23)C[C@H]1c1cc(C(F)F)nc2ncnn12 ... 182.59
6. C[C@@H]1CCN(c2nccc3ccc(Br)cc23)C[C@H]1c1cc(C(F)F)nc2ncnn12 ... 129.91
7. C[C@H]1CCN(c2nccc3occc23)C[C@@H]1c1cc(C(F)F)nc2ncnn12 ... 184.03
8. C[C@@H]1CCN(c2nccc3cccnc23)C[C@H]1c1cc(C(F)F)nc2ncnn12 ... 111.34
9. C[C@@H]1CCN(c2nccc3cccc(F)c23)C[C@H]1c1cc(C(F)F)nc2ncnn12 ... 179.73

----------
Molecular target: hPDE10A2 (Homo sapiens, UniProt Q9Y233)
Sequence (Q9Y233 267-1055): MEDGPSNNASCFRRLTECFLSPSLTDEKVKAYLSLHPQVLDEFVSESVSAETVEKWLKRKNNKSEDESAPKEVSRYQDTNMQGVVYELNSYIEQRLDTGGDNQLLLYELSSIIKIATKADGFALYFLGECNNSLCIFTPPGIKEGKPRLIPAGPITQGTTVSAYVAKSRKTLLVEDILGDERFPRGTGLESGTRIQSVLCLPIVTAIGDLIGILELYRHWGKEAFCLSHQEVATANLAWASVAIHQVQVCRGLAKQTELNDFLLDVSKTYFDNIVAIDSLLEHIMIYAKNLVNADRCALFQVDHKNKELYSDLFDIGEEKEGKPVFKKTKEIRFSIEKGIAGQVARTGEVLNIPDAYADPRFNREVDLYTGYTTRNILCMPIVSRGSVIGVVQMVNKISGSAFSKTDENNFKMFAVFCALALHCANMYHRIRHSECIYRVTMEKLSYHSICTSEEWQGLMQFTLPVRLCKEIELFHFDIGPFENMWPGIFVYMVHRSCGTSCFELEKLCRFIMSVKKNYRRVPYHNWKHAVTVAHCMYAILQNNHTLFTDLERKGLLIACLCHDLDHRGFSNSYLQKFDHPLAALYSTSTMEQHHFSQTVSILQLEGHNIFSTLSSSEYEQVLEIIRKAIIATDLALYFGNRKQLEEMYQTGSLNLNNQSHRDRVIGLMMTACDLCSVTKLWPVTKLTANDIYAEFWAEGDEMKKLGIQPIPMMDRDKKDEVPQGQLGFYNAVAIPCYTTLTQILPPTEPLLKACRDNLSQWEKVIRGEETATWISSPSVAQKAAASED
Test: biochemical
Conditions: 60 nM cAMP substrate; read-out: hPDE10A2 pIC50 (converted)
Reported IC50 values follow for various compounds
endpoint: IC50 (nM)

1) C[C@@H]1CCN(c2nccc3occc23)C[C@H]1c1cc(C(F)F)nc2ncnn12 [Compound 13] ... 457
2) C[C@@H]1CCN(c2cc(C#N)c3cc(Cl)ccc3n2)C[C@H]1c1cc(C(F)F)nc2ncnn12 [Compound 37] ... 363
3) C[C@@H]1CCN(c2cc(C#N)ccn2)C[C@H]1c1cc(C(F)F)nc2ncnn12 [Compound 22] ... 1150
4) C[C@@H]1CCN(c2nccc3ccc(F)cc23)C[C@H]1c1cc(C(F)F)nc2ncnn12 [Compound 14] ... 389
5) Cc1cc(C(F)(F)F)cc(N2CC[C@@H](C)[C@H](c3cc(C(F)F)nc4ncnn34)C2)n1 [Compound 21] ... 269

----------
Target: hPDE2A (Homo sapiens)
Construct: made in house; host or cells: Sf9 insect cells (baculovirus)
Sequence (O00408 whole entry): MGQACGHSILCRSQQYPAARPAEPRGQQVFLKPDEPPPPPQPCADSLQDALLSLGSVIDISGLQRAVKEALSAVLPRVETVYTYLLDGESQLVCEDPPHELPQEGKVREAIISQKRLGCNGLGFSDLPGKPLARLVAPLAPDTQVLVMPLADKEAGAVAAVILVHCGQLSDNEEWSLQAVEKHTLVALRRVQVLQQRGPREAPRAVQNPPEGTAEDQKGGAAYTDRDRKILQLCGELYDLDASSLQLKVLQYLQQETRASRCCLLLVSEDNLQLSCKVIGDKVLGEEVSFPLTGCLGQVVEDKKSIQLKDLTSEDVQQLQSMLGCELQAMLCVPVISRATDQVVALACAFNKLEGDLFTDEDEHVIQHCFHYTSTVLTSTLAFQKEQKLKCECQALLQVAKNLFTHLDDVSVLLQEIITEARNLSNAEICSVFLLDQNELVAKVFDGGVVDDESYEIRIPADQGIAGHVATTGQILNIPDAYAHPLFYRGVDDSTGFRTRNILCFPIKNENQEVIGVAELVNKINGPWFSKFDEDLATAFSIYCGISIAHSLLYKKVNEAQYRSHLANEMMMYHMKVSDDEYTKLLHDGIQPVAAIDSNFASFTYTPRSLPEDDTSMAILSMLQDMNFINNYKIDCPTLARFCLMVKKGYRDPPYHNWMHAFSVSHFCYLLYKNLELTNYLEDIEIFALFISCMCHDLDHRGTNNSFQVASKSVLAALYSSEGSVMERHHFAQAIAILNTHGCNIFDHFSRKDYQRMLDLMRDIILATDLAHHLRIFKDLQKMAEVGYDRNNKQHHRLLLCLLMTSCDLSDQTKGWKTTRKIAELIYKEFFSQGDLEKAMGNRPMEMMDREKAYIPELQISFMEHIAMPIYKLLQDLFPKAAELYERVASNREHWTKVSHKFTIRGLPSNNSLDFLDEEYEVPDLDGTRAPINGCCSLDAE
Test: In vitro assay PDE2A (SPA, 3H-cGMP)
Assay type: biochemical
Details: 10 μM cGMP substrate; read-out: hPDE2A pIC50 (converted)
endpoint: IC50 (nM)

1) C[C@@H]1CCN(c2nccc3ccc(O)cc23)C[C@H]1c1cc(C(F)F)nc2ncnn12 [Compound 18] ... 25.1
2) C[C@@H]1CCN(c2nccc3ccc(Cl)cc23)C[C@H]1c1cc(C(F)F)nc2ncnn12 [Compound 4] ... 3.39
3) C[C@@H]1CCN(c2nccc3ccc(Br)cc23)C[C@H]1c1cc(C(F)F)nc2ncnn12 [Compound 1] ... 2.24
4) C[C@@H]1CCN(c2cc(C#N)c3cc(Cl)ccc3n2)C[C@H]1c1cc(C(F)F)nc2ncnn12 [Compound 37] ... 129

----------
The entries below come with measured pIC50 values attached.
Target: hPDE2A (Homo sapiens)
Construct: made in house; host or cells: Sf9 insect cells (baculovirus)
Assay: In vitro assay PDE2A (SPA, 3H-cGMP)
Format: biochemical
pIC50: −log10 of the molar value.
endpoint: pIC50

1. C[C@@H]1CCN(c2ccc(C#N)cn2)C[C@H]1c1cc(C(F)F)nc2ncnn12 ... 6.79
2. CCCCOc1ccnc(N2CC[C@@H](C)[C@H](c3cc(C(F)F)nc4ncnn34)C2)c1 ... 7.86
3. COc1ccnc(N2CC[C@@H](C)[C@H](c3cc(C(F)F)nc4ncnn34)C2)c1OC.Cl ... 6.78
4. C[C@@H]1CCN(c2nccc3occc23)C[C@H]1c1cc(C(F)F)nc2ncnn12 ... 7.80

----------
Target: hPDE10A2 (Homo sapiens, UniProt Q9Y233)
Assay: biochemical
Conditions: read-out: hPDE10A2 Emax
Protocol: Rat recombinant PDE10A (rPDE10A2) was expressed in Sf9 cells using a recombinant rPDE10A baculovirus construct. Cells were harvested after 48 h of infection and the rPDE10A protein was purified by metal chelate chromatography on Ni-sepharose 6FF. […] After sedimentation of the beads during 30 minutes the radioactivity was measured in a Perkin Elmer Topcount scintillation counter and results were expressed as cpm. […]
The entries below are paired with their reported Emax.
endpoint: Emax (%)

1. CC(C)Oc1cccnc1N1CC[C@H](C)[C@@H](c2cc(C(F)F)nc3ncnn23)C1.Cl [Compound 34] ... 33
2. Cc1cccc(N2CC[C@@H](C)C(c3cc(C(F)F)nc4ncnn34)C2)n1 (stereo partly shown) [Compound 39] ... 87
3. Cc1cc([C@@H]2CN(c3nccc4ccc(Br)cc34)CC[C@H]2C)n2ncnc2n1 [Compound 2] ... 102
4. C[C@@H]1CCN(c2nccc3occc23)C[C@H]1c1cc(C(F)F)nc2ncnn12 [Compound 13] ... 91
5. CCCCOc1ccnc(N2CC[C@@H](C)[C@H](c3cc(C(F)F)nc4ncnn34)C2)c1 [Compound 11] ... 97
6. C[C@@H]1CCN(c2nccc3ccccc23)C[C@H]1c1cc(C(F)F)nc2ncnn12 [Compound 7] ... 98
7. Cc1cc([C@@H]2CN(c3nccc4ccc(Cl)cc34)CC[C@H]2C)n2ncnc2n1 [Compound 3] ... 100
8. C[C@@H]1CCN(c2nccc3cccc(F)c23)C[C@H]1c1cc(C(F)F)nc2ncnn12 [Compound 20] ... 97
9. COc1cccc2c(N3CC[C@@H](C)[C@H](c4cc(C(F)F)nc5ncnn45)C3)nccc12.Cl [Compound 10] ... 100
10. COc1ccnc(N2CC[C@@H](C)[C@H](c3cc(C(F)F)nc4ncnn34)C2)c1OC.Cl [Compound 33] ... 82
11. C[C@@H]1CCN(c2cc(I)ccn2)C[C@H]1c1cc(C(F)F)nc2ncnn12 [Compound 16] ... 99
12. C[C@@H]1CCN(c2cccc(C#N)n2)C[C@H]1c1cc(C(F)F)nc2ncnn12 [Compound 24] ... 94
13. C[C@@H]1CCN(c2cc(C#N)ccn2)C[C@H]1c1cc(C(F)F)nc2ncnn12 [Compound 22] ... 90
14. C[C@@H]1CCN(c2nccc3ccc(F)cc23)C[C@H]1c1cc(C(F)F)nc2ncnn12 [Compound 14] ... 98
15. C[C@@H]1CCN(c2nccc3ccc(Cl)cc23)C[C@H]1c1cc(C(F)F)nc2ncnn12 [Compound 4] ... 101
16. C[C@@H]1CCN(c2ccccn2)C[C@H]1c1cc(C(F)F)nc2ncnn12.Cl [Compound 32] ... 87

----------
Each entry below carries its reported hPDE3B Emax.
Tested on: hPDE3B
Assay: In vitro assay PDE3 (SPA, 3H-cAMP)
Format: biochemical, human
endpoint: hPDE3B Emax

1. C[C@@H]1CCN(c2ccc(C#N)cn2)C[C@H]1c1cc(C(F)F)nc2ncnn12 ... 31
2. C[C@@H]1CCN(c2cccc(C(F)(F)F)n2)C[C@H]1c1cc(C(F)F)nc2ncnn12 ... 80
3. C[C@@H]1CCN(c2nccc3ccc(O)cc23)C[C@H]1c1cc(C(F)F)nc2ncnn12 ... 65
4. Cc1cccc2ccnc(N3CC[C@@H](C)C(c4cc(C(F)F)nc5ncnn45)C3)c12 (stereo partly shown) ... 65
5. Cc1cc(C(F)(F)F)cc(N2CC[C@@H](C)[C@H](c3cc(C(F)F)nc4ncnn34)C2)n1 ... 93
6. C[C@@H]1CCN(c2nccc3[nH]ccc23)C[C@H]1c1cc(C(F)F)nc2ncnn12 ... 60
7. C[C@@H]1CCN(c2ccnc3ccccc23)C[C@H]1c1cc(C(F)F)nc2ncnn12 ... 70
8. C[C@@H]1CCN(c2ccc(Cl)cn2)C[C@H]1c1cc(C(F)F)nc2ncnn12 ... 45
9. FC(F)c1cc([C@H]2CC[C@H]3CC[C@@H]2N3c2c(Br)ccc3ccncc23)n2ncnc2n1 ... 76
10. C[C@H]1CCN(c2nccc3ccc(Br)cc23)C[C@@H]1c1cc(C(F)F)nc2ncnn12 ... 99
11. COc1ccnc(N2CC[C@@H](C)[C@H](c3cc(C(F)F)nc4ncnn34)C2)c1OC.Cl ... 40
12. CCCCOc1ccnc(N2CC[C@@H](C)[C@H](c3cc(C(F)F)nc4ncnn34)C2)c1 ... 99
13. C[C@@H]1CCN(c2nccc3ccccc23)C[C@H]1c1cc(C(F)F)nc2ncnn12 ... 69
14. C[C@@H]1CCN(c2nccc3ccc(Cl)cc23)C[C@H]1c1cc(C(F)F)nc2ncnn12 ... 82
15. C[C@@H]1CCN(c2ncccc2Cl)C[C@H]1c1cc(C(F)F)nc2ncnn12 ... 50
16. Cc1cc([C@@H]2CN(c3nccc4ccc(Br)cc34)CC[C@H]2C)n2ncnc2n1 ... 89

The reported measurements were obtained from patent US11053248B2.
